The origin of these recorded values is paper PMC5540273.

Known %Inh of a selection of molecules
Tested on: ACVRL1
MEASUREMENT SETUP: concentration: 1 μM, replicates: in singlicate; n = 1

Here's what some known entries look like.
{"columns": ["MOLECULE", "%Inh"],
 "data": [
  ["COC(=O)C(NC(=O)NC1CCN(c2ccnc(Nc3ccc(F)cc3)n2)C1)c1ccccc1 (centres unmarked)", "0%"],
  ["Cc1nccc(-c2c(-c3ccc(F)cc3)ncn2CCCN2CCOCC2)n1.Cl", "19%"],
  ["CC(=O)c1cccc(NC(=O)NC2CCN(c3ccnc(Nc4ccc(F)cc4)n3)C2)c1 (centres unmarked)", "0%"],
  ["COc1ccc(Nc2nccc(N3CCC(NC(=O)C(C)c4ccc(Cl)cc4)CC3)n2)cc1 (centres unmarked)", "0%"]
]}

Return reported %Inh; argument: Cn1cncc1C(=O)NC1CCN(c2ccnc(Nc3ccc(F)cc3)n2)C1 (centres unmarked)
0%

* * *

Tested on: HIPK4
MEASUREMENT SETUP: concentration: 1 μM, replicates: in singlicate; n = 1
Use 8% as the dividing line for %Inh, with the line itself on the 1 side and lower values as -1.

{"columns": ["COMPOUND", "ASSIGNED CATEGORY"],
 "data": [
  ["Cc1ccccc1-c1cc(-c2c[nH]nc2-c2ccccn2)ccn1 [GW680061]", -1],
  ["Cc1ccc(-c2nc(Nc3ccncc3)c3ccccc3n2)s1 [GSK189015]", 1]
]}

Decide: %Inh of CN1c2ccc(-c3ccc(C(N)=O)cc3)cc2-c2[nH]ncc2S1(=O)=O >= 8%?
-1

Thanks! And Fc1ccc(-c2nn3cccc(F)c3c2-c2ccncc2)cc1 [GW475620] ?
1

Now the compound CCn1c(-c2ccccc2)nc2cnccc21 [SB-733416]
-1

* * *

Test system: PRP4
MEASUREMENT SETUP: concentration: 1 μM, replicates: in singlicate; n = 1
Entries and their %Inh
// units = %; emit number, no label

{"columns": ["COMPOUND", "%Inh [%]"],
 "data": [
  ["Cc1ccc(NC(=O)Nc2ccccc2F)cc1-c1ccc(C(=O)Nc2ccncc2)cc1 [GSK1398477]", 2],
  ["Fc1ccc(-c2nc[nH]c2-c2ccncc2)cc1 [SB-217360]", 0]
]}

Let us move to another entry and its %Inh.
Notebook entry, PRP4 assay: %Inh of Cc1ccc(NC(=O)Nc2ccc(Cl)cc2)cc1-c1ccc(C(=O)Nc2ccncc2)cc1 [GSK1398472] = ?
21

* * *

System: RIOK2
MEASUREMENT SETUP: concentration: 1 μM, replicates: in singlicate; n = 1
READOUT TYPE: %Inh (%)
Kindly provide the numeric value in % only, without the unit symbol.

Below, each entry is followed by its recorded %Inh result.
{"columns": ["COMPOUND", "READOUT TYPE", "UOM", "TEST VALUE"],
 "data": [
  ["O=c1cc(N2CCOCC2)nc2n(Cc3ccccc3F)ccn12 [GSK2297428]", "%Inh", "%", 42],
  ["Cc1ccc(NC(=O)Nc2ccc(Cl)c(C(F)(F)F)c2)cc1-c1ccc(C(=O)Nc2ccncc2)cc1 [GSK1398470]", "%Inh", "%", 12],
  ["Cc1c(Cn2c(C)c(C)n3c(=O)cc(N4CCOCC4)nc23)cccc1C(F)(F)F [GSK2328680]", "%Inh", "%", 11],
  ["COc1ccc(CSc2nnc(-c3ccc4c(c3)CCO4)o2)cc1", "%Inh", "%", 0],
  ["CC(=O)c1c(C)c2cnc(Nc3ccc(N4CCNCC4)cn3)nc2n(C2CCCC2)c1=O", "%Inh", "%", 0]
]}

Form field - read-out: %Inh; system: RIOK2; submitted item: CNc1cc(-c2ccc3c(N)n[nH]c3c2)nc(N)n1 [GSK2224810]
12

Likewise for Nc1cccc(-c2ccc3c(N)n[nH]c3c2)n1 [GSK2192730] ?
34

And COc1nccc(-c2c(-c3ccc(F)cc3)ncn2CCCN2CCOCC2)n1 [SB-282852] ?
0

Entry to check: Cc1ccc(-c2nc(Nc3ccncc3)c3ccccc3n2)s1 [GSK189015]
26

* * *

System: MST4
MEASUREMENT SETUP: concentration: 1 μM, replicates: in singlicate; n = 1
Entries and their %Inh values follow.
Write down the numeric answer in % and omit the unit.

# annotated cases, reported %Inh shown
{"columns": ["MOLECULE", "UOM", "%Inh"],
 "data": [
  ["COC(=O)c1cccc(NC(=O)NC2CCN(c3ccnc(Nc4ccc(F)cc4)n3)C2)c1 (stereo not drawn)", "%", 0],
  ["Cc1c(Cn2c3ccccc3n3c(=O)cc(N4CCOCC4)nc23)cccc1C(F)(F)F", "%", 0],
  ["CCc1ccc(-c2ccc3c(c2)-c2n[nH]cc2S(=O)(=O)N3C)cc1", "%", 0],
  ["COc1ccc(CSc2nnc(-c3ccc4c(c3)CCO4)o2)cc1", "%", 0],
  ["COc1ccc(Nc2nccc(N3CCC(NC(=O)C(C)c4ccc(Cl)cc4)CC3)n2)cc1 (stereo not drawn)", "%", 0]
]}

Provide the documented %Inh with MST4 as the system for Nc1nccc(-c2c(-c3ccc(F)cc3)ncn2C2CCN(Cc3ccccc3)CC2)n1
0

Please do the same for COC(=O)c1cccc(NC(=O)NC2CCN(c3ccnc(Nc4ccc(OC)cc4)n3)C2)c1 (stereo not drawn) as well.
0

Now the same for CNCc1ccc2nc(NC(=O)c3ccc(C(C)(C)C)cc3)cn2c1
24

// query: Cc1nccc(-c2c(-c3ccc(F)cc3)ncn2CCCN2CCOCC2)n1.Cl
5

* * *

Test system: p38-gamma
Construct: gene MAPK12
MEASUREMENT SETUP: concentration: 1 μM, replicates: in singlicate; n = 1
Recorded %Inh values for a group of molecules are listed next.
# value in %; strip the unit string

{"columns": ["MOLECULE", "%Inh, %"],
 "data": [
  ["COc1cc2ncnc(Nc3cccc(Br)c3)c2cc1OC.Cl [GI230329]", 66],
  ["Cc1ccc(NC(=O)c2ccc(Cl)cc2)cc1-c1ccc(C(=O)Nc2ccncc2)cc1 [GSK1398467]", 0],
  ["CC(C)c1ccc(O)cc1Nc1ccnc2ccc(C(F)(F)F)cc12 [GW482059]", 0],
  ["CS(=O)(=O)CCNCc1nc(-c2ccc3ncnc(Nc4ccc(OCc5ccccc5)c(Cl)c4)c3c2)cs1.Cl [GW582764]", 0],
  ["Cc1ccc(-c2nc(Nc3ccncc3)c3ccccc3n2)s1 [GSK189015]", 12]
]}

# query: %Inh of entry Fc1ccc(-c2nn3cccc(F)c3c2-c2ccncc2)cc1 [GW475620]
0

Now consider COc1ccc(Nc2nccc(-c3ccc(NC(=O)c4cc5cc(F)ccc5[nH]4)cc3)n2)cc1 [GSK1229496] and answer again.
1

Do the same for COc1nccc(-c2c(-c3ccc(F)cc3)ncn2CCCN2CCOCC2)n1 [SB-282852] please
46

Would you mind doing Fc1ccc(-c2nc[nH]c2-c2ccncc2)cc1 [SB-217360] as well?
39

# repeat for Nc1nccc(-c2c(-c3ccc(F)cc3)ncn2C2CCN(Cc3ccccc3)CC2)n1 [SB-219980]
0

Same question, CC(=O)c1c(C)c2cnc(Nc3ccc(N4CCNCC4)cn3)nc2n(C2CCCC2)c1=O this time
6

# repeat for COc1ccc(-c2coc3ccc(-c4nnc(C)o4)cc23)cc1
0

Now the same for Cc1ccccc1Cn1ccn2c(=O)cc(N3CCOCC3)nc12 [GSK2269905]
0

Moving on to the next molecule: CS(=O)(=O)CCNCc1nc(-c2ccc3ncnc(Nc4ccc5c(cnn5Cc5ccccc5)c4)c3c2)cs1.Cl.Cl [GW569716]
0

And CN1c2ccc(-c3ccc(C(N)=O)cc3)cc2-c2[nH]ncc2S1(=O)=O ?
0

# repeat for CC(C)c1cc(-c2ccc3c(N)n[nH]c3c2)nc(N)n1 [GSK2250882]
43

Then FC(F)(F)c1ccccc1-c1cc(-c2c[nH]nc2-c2ccccn2)ccn1 [GW679396] ?
0

For CS(=O)(=O)Cc1ccc(Nc2nccc(-c3c(-c4cccc(NC(=O)C5CCCCC5)c4)nn4ncccc34)n2)cc1 [GSK350559] then?
43

* * *

Quick record: Kd, TESK1.

{"columns": ["COMPOUND", "TGT", "TEST VALUE"],
 "data": [
  ["COc1cccc(CNC(=O)NC2CCN(c3ccnc(Nc4ccc(F)cc4)n3)C2)c1 (centres unmarked)", "TESK1", "9.8 µM"]
]}

Then this compound:
Dear colleague, I am looking for the recorded Kd of the following compound: Cn1cncc1C(=O)NC1CCN(c2ccnc(Nc3ccc(F)cc3)n2)C1 (centres unmarked)
> 10 µM

* * *

Tested on: IKK-epsilon
Construct: gene IKBKE
MEASUREMENT SETUP: concentration: 1 μM, replicates: in singlicate; n = 1
hey, just use Criterion met if measured %Inh is less than 4%, otherwise Criterion not met

Check out these entries, answers already filled in.
{"columns": ["COMPOUND", "TGT", "ASSIGNED CATEGORY"],
 "data": [
  ["Cc1cnc(N)c(/C=C/c2cncc(C(=O)NCCc3ccc(Cl)cc3Cl)c2)c1.Cl", "IKK-epsilon", "Criterion not met"],
  ["Cc1ccccc1-c1cc(-c2c[nH]nc2-c2ccccn2)ccn1", "IKK-epsilon", "Criterion met"],
  ["COC(=O)c1cccc(NC(=O)NC2CCN(c3ccnc(Nc4ccc(F)cc4)n3)C2)c1 (stereo not shown)", "IKK-epsilon", "Criterion met"]
]}

Report whether reported %Inh is lower than 4% (strictly) for COc1ccc(Nc2nccc(-c3ccc(NC(=O)c4cc5cc(F)ccc5[nH]4)cc3)n2)cc1
Criterion not met

Now the compound CS(=O)(=O)CCNCc1nc(-c2ccc3ncnc(Nc4ccc(OCc5ccccc5)c(Cl)c4)c3c2)cs1.Cl
Criterion met
